Reference for the values: PubChem BioAssay (NCI)

- Test system: NCI-H23 lung
- procedure-details: NCI-60 one-dose screen, 48 h
- test-conditions: 10 µM unless noted
About 83,000 compounds went through this panel and 20% of them were active in at least one assay; those are over-represented in the sample as a whole. Calls of active or inactive are those of the source. Rule for the calls: active = growth percent below 10; inactive = the rest.
# valid calls are true (1) (active), false (0) (inactive); nothing else

Illustrative cases are given below, each with its answer.
| compound | study-system | assigned-category |
| --- | --- | --- |
| COC(=O)N[C@H]1CCc2c(Cl)c(OC)c(OC)c(OC)c2-c2ccc(SC)c(=O)cc21 | NCI-H23 lung | false (0) |
| Cc1ccc(-c2[nH][nH]c(=O)c2-c2nc3ccccc3s2)cc1 | NCI-H23 lung | false (0) |
| N#Cc1c(NCc2ccccc2I)sc2c1CCCCC2 | NCI-H23 lung | false (0) |
| CC(=O)c1ccc(NS(=O)(=O)c2cccc(C(=O)Nc3ccc(Br)cc3)c2)cc1 | NCI-H23 lung | false (0) |
| Cc1nnc2c(Cc3ccccc3)nc3ccccc3n12 | NCI-H23 lung | false (0) |
| O=C(NCCc1ccccc1)Nc1ccc2cc3ccc(NC(=O)NCCc4ccccc4)cc3nc2c1 | NCI-H23 lung | false (0) |
| CCN(CC)c1ccc(/C=N/NC(=O)CSc2nc3ccccc3c(=O)n2CCc2ccc(S(N)(=O)=O)cc2)c(O)c1 | NCI-H23 lung | false (0) |
| N#CC1=C(N)Oc2c(ccc3ccccc23)C1c1ccccc1Cl (stereo not drawn) | NCI-H23 lung | false (0) |
| COc1cc(C2C3=C(COC3=O)N(CCO)c3cc4c(cc32)CCC4)cc(OC)c1OC (stereo not drawn) | NCI-H23 lung | true (1) |
| COc1ccc2c(c1)oc1c(C)c3c(c(C)c12)C(=O)N(CCN1CCOCC1)C3=O | NCI-H23 lung | false (0) |

# input for lookup
Please let me know the test result on file for CC(C)=CCC[C@](C)(O)[C@H]1CC[C@]2(C)[C@@H]1CC[C@@H]1[C@@]3(C)C/C(=C/c4ccccc4)C(=O)C(C)(C)[C@@H]3CC[C@]12C .
false (0)

* * *

- Tested on: UO-31 renal
- procedure-details: NCI-60 one-dose screen, 48 h
- test-conditions: 10 µM unless noted
This is part of a sample that, as a whole, favours compounds with a hit. Of some 83,000 tested, about 20% had one in any assay. Active and inactive are the calls of the source. The calls were made as follows: active = growth percent below 10; inactive = the rest.
# valid calls are true (1) (active), false (0) (inactive); nothing else

Illustrative cases are given below, each with its answer.
| compound | assigned-category |
| --- | --- |
| Cn1ccc2c1CC1CN(Cc3ccco3)C(=O)C1C2C(=O)O (centres undefined) | false (0) |
| C=C1C(=O)O[C@H]2[C@H]1CC/C(COC(=O)NCc1c[nH]c3ccc(Br)cc13)=C\CC[C@@]1(C)O[C@@H]21 | true (1) |

Please let me know the test result on file for O=C(c1nc2ccccc2[nH]1)C1C(c2ccc(Br)cc2)C2CC3CCCC[C@H]3N2[C@@]12C(=O)Nc1cc(Cl)ccc12 (some centres undefined) .
false (0)

Please let me know the test result on file for CN(C)c1ccc(Nc2c3ccccc3nc3cc(NC(=O)CCN4CCCC4)ccc23)cc1 .
true (1)

Please let me know the test result on file for CCN(CC)c1ccc(/C=N/NC(=O)CSc2nc3ccccc3c(=O)n2CCc2ccc(S(N)(=O)=O)cc2)c(O)c1 .
false (0)

Please let me know the test result on file for O=C1/C=C/[C@@H](O)[C@@H]2C[C@@H](O)C[C@H]2/C=C/CCC[C@H](CCc2cccc3ccccc23)O1 .
true (1)

Please let me know the test result on file for Cc1ccc(-n2nc3c(c(C#N)c2=O)CC(c2ccccc2[N+](=O)[O-])C([N+](=O)[O-])=C3O)cc1 (centres undefined) .
false (0)
